System: MALME-3M melanoma
test.description: NCI tumour cell line growth inhibition, 48 h; in the data active means GI50 below about 0.43 µM; inactive means the rest
Labels: active, inactive

compound	group.label
O=C(N/N=C/c1cc(Cl)cc(Cl)c1[O-])c1ccccc1O.O=C(N/N=C/c1cc(Cl)cc(Cl)c1[O-])c1ccccc1O.[Cu+2]	active
Cc1c(C(=O)/C=C/c2ccc(Cl)cc2)nnn1-c1ccnc2c(C(F)(F)F)cccc12	inactive
COc1cc(C(=O)c2cnc(-c3ccc4cc[nH]c4c3)[nH]2)cc(OC)c1OC	inactive
COc1ccc(C(=O)/C=C/c2c(C(F)(F)F)nc3ccccn23)cc1OC	inactive
Fc1ccc(-c2c(-c3ccncc3)[nH]c3cccnc23)cc1	inactive
CN(CO)c1nc(N(C)CO)nc(N(C)CO)n1	inactive
Cc1nccc2c3ccc(OCc4cn(-c5ccc(Br)cc5)nn4)cc3n(CCCc3ccccc3)c12	inactive
Oc1ccccc1/C=N\Nc1ccccc1	inactive
O=C1c2c(c3c4ccccc4n(CCCCCCN4CCOCC4)c3c3[nH]c4ccccc4c23)C(=O)N1O	inactive
C=C1C(=O)O[C@H]2[C@H]1CC/C(CNC(=O)C(C)c1ccc(CC(C)C)cc1)=C\CC[C@@]1(C)O[C@@H]21 (stereo not given in full)	inactive
CN(C)c1ccc2cc3c(cc2c1)Oc1ccccc1N3.[Cl][Zn][Cl]	inactive
COc1ccc2c(c1)C(=O)/C(=C/c1cccc(OCC(=O)c3ccc([N+](=O)[O-])cc3)c1)CO2	inactive
CN1CCN(C(=O)[C@@]2(C)CC[C@]3(C)CC[C@]4(C)C(=CC[C@@H]5[C@@]6(C)CC[C@H](OC(=O)c7cccnc7)C(C)(C)[C@@H]6CC[C@]54C)[C@@H]3C2)CC1	inactive
COc1ccccc1-c1ccc2c(N)c(C(=O)c3ccc4c(c3)OCO4)sc2n1	inactive
CN(CCCCCCCCNc1ccnc2ccccc12)Cc1ccc(-c2ccc(-c3ccc(C#N)cc3)s2)cc1	inactive

----------
Listed molecules paired with reported TGI
Test system: HCT-15 colon
test.description: NCI tumour cell line growth inhibition, 48 h
measurement.kind: TGI (µM)

> print(dat)
                                    molecule  measurement.kind  unit.symbol  value.operator  test.value
 1  N#Cc1ccc(C(=O)c2cnn(-c3ccc(F)cc3)c2N)cc1               TGI           µM               >          25
 2  CC(C)(CN1CCCCC1)C(=O)CC(SCCS(=O)(=O)O)c1ccccc1 (stereo unspecified)               TGI           µM               =        42.9
 3  CN(C)c1ccc2cc3c(cc2c1)Oc1ccccc1N3.[Cl][Zn][Cl]               TGI           µM               =        6.47
 4      O=c1oc2ccc(I)cc2c(=O)n1-c1ccc(I)cc1F               TGI           µM               =        10.5
 5  COC(=O)CCc1cc(OC)c2oc(-c3ccc(OC)c(OC)c3)c(CO)c2c1               TGI           µM               >         100
 6  O=C1c2c(c3c4ccccc4n(CCCCCCN4CCOCC4)c3c3[nH]c4ccccc4c23)C(=O)N1O               TGI           µM               =        12.2
 7  CN(C)C[C@@H]1CCn2cc(c3ccccc32)C2=C(C(=O)NC2=O)c2cn(c3ccccc23)CCO1               TGI           µM               >          10
 8  O=C1C(c2ccccc2)=[N+]([O-])c2cc([N+](=O)[O-])ccc21               TGI           µM               =        56.5
 9  COc1ccc(-c2nsc3c2NC(=O)CC3c2cccc(F)c2)cc1 (stereo unspecified)               TGI           µM               >         100
10  O=C1CS(=O)c2ccccc2N1 (stereo unspecified)               TGI           µM               >         100
11  CCOP(=O)(OCC)C(NC(c1ccccc1)c1ccccc1)c1ccsc1 (stereo unspecified)               TGI           µM               =        84.6

----------
# TGI listing for each entry below
System: K-562 leukemia
test.description: NCI tumour cell line growth inhibition, 48 h

compound	TGI
COc1cc(C2SCC(=O)N2c2ccc(Cl)cc2)cc(OC)c1OC (stereo unspecified)	> 52.9 µM
CC(=O)Oc1ccc(C)c2c1[C@H]1CC[C@]3(C)[C@@H](OC(C)=O)CC[C@H]3[C@@H]1CC2	68.3 µM
CC(/C=C1\CCC(CN(C)C)C1=O)c1cccc(Br)c1 (stereo unspecified)	9.43 µM
CCCn1cc(/C=N\N=C2\C(=O)Nc3ccc(C)cc32)c2ccccc21	20.5 µM
O=C(O)CC(S)C(=O)O.[Li+].[Sb] (stereo unspecified)	> 100 µM
CC(C)c1ccc(C(c2c(O)c3ccccc3oc2=O)c2c(O)c3ccccc3oc2=O)cc1	51.4 µM
N#Cc1ccc(C(=O)c2cnn(-c3ccc(F)cc3)c2N)cc1	> 25 µM
CCCCCC1CC=CC(NC(=O)OCc2ccccc2)C1/C=C/CCCC1OCCO1 (stereo unspecified)	> 100 µM
CCOC(=O)NC(C(F)(F)F)(C(F)(F)F)P(=O)(OCC)OCC	> 100 µM
Cc1ccc(/C=C2\CCS(=O)(=O)c3ccccc3C2=O)cc1	> 100 µM
O=c1[nH]nc(-c2ccccc2)n1-n1cccc1	> 100 µM
CC(Cn1c(=O)oc2ccccc21)N(C)C (stereo unspecified)	> 100 µM
N#C/C(=C\c1ccccc1F)C(=O)c1ccccc1	> 100 µM
O=S1(=O)OCCOS(=O)(=O)C1(Br)Br	> 100 µM
COc1ccc2[nH]cc(Cc3c[nH]c4ccc(OC)cc34)c2c1	71.4 µM
COc1cccc2c1C(=O)c1c(O)c3c(c(O)c1C2=O)CC(O)(C(C)=O)CC3OC1OC(COC(C)=O)C(OC(C)=O)C(OC(C)=O)C1OC(C)=O (stereo unspecified)	> 100 µM
COc1cccc(C2c3cc4c(cc3OC(NNC(N)=O)C2C)OCO4)c1OC (stereo unspecified)	88 µM
CCOC(=O)Cc1ccc(Nc2nc3cc(F)c(F)cc3nc2C(=O)OCC)cc1	> 100 µM
O=C(O)CCC1(CCC(=O)O)CCCCCCCCC(CCC(=O)O)(CCC(=O)O)C(=O)C1=O	> 100 µM
CC1=C(C(=O)NNC(=O)c2ccccc2O)CC(C(=O)NNC(=O)c2ccccc2O)=C(C)N1	> 100 µM
CCCCCCC(O)C(=O)OC1C2C(CC1(C)C)C(O)C13OC1C(O)C1(CO1)[C@@]23C (stereo partly specified)	> 100 µM
CC(C)NC(=O)OCc1c(COC(=O)NC(C)C)c(-c2cc[n+](COC(=O)Cc3ccccc3)cc2)n2c1CCC2	> 100 µM
COc1cc2c(cc1OC)-c1c(c3ccc([N+](=O)[O-])cc3c(=O)n1CCCN=[N+]=[N-])C2=O	> 100 µM
CCCCCCc1cc2cc(-c3cn4ccccc4n3)c(=O)oc2cc1O	> 40.3 µM
COc1ccc(-c2nsc3c2NC(=O)CC3c2cccc(F)c2)cc1 (stereo unspecified)	> 100 µM
C=C(C)C1CC=C(C)C(O)([C@@]2(O)C[C@H](C(=C)C)CC=C2C)C1 (stereo partly specified)	49.4 µM
COc1cc2cnc3c4cc(O)ccc4ccc3c2cc1OC	> 100 µM
COC(=O)N1C2C(C[C@@]1(C)C(=O)OC)c1ccccc1N2S(=O)(=O)c1ccccc1 (stereo partly specified)	> 100 µM
C[N+]1(C)C/C(=C\C=C\c2ccccc2)C(=O)/C(=C/C=C/c2ccccc2)C1	36 µM
Cc1cc(=O)n2c(cc3cccccc32)n1	> 100 µM
CCC1=CCC(P(=O)(c2ccccc2)c2ccccc2)CC1C (stereo unspecified)	> 100 µM
CCOC(OCC)[C@@H]1C[C@@H]2N(O[C@H](OC3CCCC3(c3ccccc3)c3ccccc3)[C@H](OC(C)=O)[C@@]2(CC)Cc2ccc(OC)c(OC)c2)O1 (stereo partly specified)	> 100 µM
CCCC1(N2C(=O)c3ccc4c5c(ccc(c35)C2=O)N(C2(CCC)CCCCC2)C4=O)CCCCC1	> 100 µM
CCOC(=O)CN1C(=O)c2c(NC(=O)C(=O)O)cccc2S1(=O)=O	> 100 µM
N#Cc1ccc(O)c(C2=NCC(c3ccc(-c4ccccc4)cc3)O2)c1 (stereo unspecified)	> 100 µM
CSC(=NC(=O)c1ccccc1)SCCSC(=NC(=O)c1ccccc1)SC	> 100 µM
C#Cc1cccc(Nc2ncnc3ccc(-c4cnc(N)nc4)cc23)c1	> 100 µM
O=C(OCC1CC(C2(O)CCCCC2)C(=O)O1)c1ccccc1 (stereo unspecified)	> 100 µM
O=C(CO)CC(=O)C(=O)Nc1cccc(C(F)(F)F)c1	> 100 µM
CN(CCc1ccccn1)/[N+]([O-])=N/O (tested in a mixture with another compound)	> 100 µM
CC1=NC(=O)CNN1C1=NNC2(C(=O)N1)c1ccccc1-c1ccccc12	> 100 µM
